- subject-of-test: human GABAA α5β3γ2s receptor (Homo sapiens, UniProt P18507+P31644)
- Sequence (P18507 1-475): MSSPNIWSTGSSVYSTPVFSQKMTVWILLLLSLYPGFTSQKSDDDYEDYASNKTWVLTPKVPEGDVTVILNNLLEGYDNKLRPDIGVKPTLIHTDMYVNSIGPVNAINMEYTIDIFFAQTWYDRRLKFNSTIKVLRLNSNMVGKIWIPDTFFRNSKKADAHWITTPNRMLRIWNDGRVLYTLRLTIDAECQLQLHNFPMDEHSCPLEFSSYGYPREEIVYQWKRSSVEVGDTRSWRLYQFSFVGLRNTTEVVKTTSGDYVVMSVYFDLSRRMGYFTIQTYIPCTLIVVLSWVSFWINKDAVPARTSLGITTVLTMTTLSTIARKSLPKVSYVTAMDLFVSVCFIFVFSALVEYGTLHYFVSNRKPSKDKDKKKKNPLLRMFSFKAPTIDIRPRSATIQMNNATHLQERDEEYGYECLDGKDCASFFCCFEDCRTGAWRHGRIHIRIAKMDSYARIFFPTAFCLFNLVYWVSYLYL
- Sequence (P31644 1-462): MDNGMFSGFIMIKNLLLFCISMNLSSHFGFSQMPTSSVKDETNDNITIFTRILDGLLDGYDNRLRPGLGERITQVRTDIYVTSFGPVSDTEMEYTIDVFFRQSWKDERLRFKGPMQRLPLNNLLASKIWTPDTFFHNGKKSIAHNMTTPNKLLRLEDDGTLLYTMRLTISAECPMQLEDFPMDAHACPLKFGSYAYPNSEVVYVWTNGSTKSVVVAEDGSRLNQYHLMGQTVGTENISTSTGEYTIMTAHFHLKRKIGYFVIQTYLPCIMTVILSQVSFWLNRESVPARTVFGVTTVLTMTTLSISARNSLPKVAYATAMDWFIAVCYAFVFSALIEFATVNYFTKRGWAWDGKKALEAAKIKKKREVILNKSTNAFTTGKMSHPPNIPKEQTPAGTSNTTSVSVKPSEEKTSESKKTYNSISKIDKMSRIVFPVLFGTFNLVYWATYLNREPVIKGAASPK
- measurement-notes: Assay A: in vitro inhibition of 3H-flumazenil binding, HEK cells expressing human GABAA α5β3γ2s receptor
- run-conditions: 3H-flumazenil 1 nM, HEK-293 membranes, 40 min at 2° C.; Ki from IC50 by Cheng and Prusoff
measured-quantity: Ki (nM)

Study these solved cases before continuing.
[
  {
    "compound": "Cc1cc(-c2ccc(OCc3c(C)nnn3-c3ccc(C(F)F)cc3)nn2)cnn1",
    "test-result": 0.058
  },
  {
    "compound": "Cc1nnn(-c2ccc(C(F)F)cc2)c1COc1ccc(-c2ccnc(O)c2)nn1",
    "test-result": 0.086
  },
  {
    "compound": "Cc1nnn(-c2ccc(C(F)F)cc2)c1COc1ccc(-n2cnc(C(=O)N(C)C)c2)nn1",
    "test-result": 0.16
  },
  {
    "compound": "Cc1n[nH]c(C)c1-c1ccc(OCc2c(C)nnn2-c2ccc(C(F)F)cc2)nn1",
    "test-result": 0.9
  },
  {
    "compound": "Cc1nnn(-c2ccc(C(F)F)cc2)c1COc1ccc(-n2cnc([S+](C)[O-])c2)nn1 (stereo not drawn)",
    "test-result": 0.27
  },
  {
    "compound": "Cc1nnn(-c2ccc(C(F)F)cc2)c1COc1ccc(-c2cncnc2)nn1",
    "test-result": 0.11
  },
  {
    "compound": "Cc1nnn(-c2ccc(C(F)F)cc2)c1COc1ccc(-n2cc3c(n2)CCNC3=O)nn1",
    "test-result": 0.12
  },
  {
    "compound": "Cc1nnn(-c2ccc(C(F)F)cc2)c1COc1ccc(-n2cnc(C=O)c2)nn1",
    "test-result": 0.089
  },
  {
    "compound": "Cc1nnn(-c2ccc(C(F)F)cc2)c1COc1ccc(-n2cnc(C(=O)O)c2)nn1",
    "test-result": 0.81
  },
  {
    "compound": "COc1ncc(-c2ccc(OCc3c(C)nnn3-c3ccc(C(F)F)cc3)nn2)cn1",
    "test-result": 0.16
  }
]

P: Cc1nnn(-c2ccc(C(F)F)cc2)c1COc1ccc(-n2ccc(C(F)(F)F)n2)nn1
Q: Cc1ncn(-c2ccc(OCc3c(C)nnn3-c3ccc(C(F)F)cc3)nn2)n1
R: CCn1cc(-c2ccc(OCc3c(C)nnn3-c3ccc(C(F)F)cc3)nn2)cn1
S: COC(=O)c1cn(-c2ccc(OCc3c(C)nnn3-c3ccc(C(F)F)cc3)nn2)cn1
Rank entries according to their Ki, from the largest number down. Reply with the item labels sorted in the order that was asked for.
P, Q, S, R

I: Cc1nnn(-c2ccc(C(F)F)cc2)c1COc1ccc(-n2cc(C#N)cn2)nn1
II: Cc1nnn(-c2ccc(C(F)F)cc2)c1COc1ccc(-n2cc(C(F)(F)F)cn2)nn1
III: Cc1nnn(-c2ccc(C(F)F)cc2)c1COc1ccc(-n2cnc(C(N)=O)c2)nn1
Put the items in sequence by Ki, from largest down. Please list the labels in the order you were asked to rank them.
II, I, III
